A collection of molecules and their measured Bir binding
SYSTEM NAME: truncated XIAP containing only BIR1, BIR2, and BIR3 domains (Homo sapiens, UniProt P98170)
Construct: truncated XIAP containing only BIR1, BIR2, and BIR3 domains
Sequence (P98170 1-356 limits assumed): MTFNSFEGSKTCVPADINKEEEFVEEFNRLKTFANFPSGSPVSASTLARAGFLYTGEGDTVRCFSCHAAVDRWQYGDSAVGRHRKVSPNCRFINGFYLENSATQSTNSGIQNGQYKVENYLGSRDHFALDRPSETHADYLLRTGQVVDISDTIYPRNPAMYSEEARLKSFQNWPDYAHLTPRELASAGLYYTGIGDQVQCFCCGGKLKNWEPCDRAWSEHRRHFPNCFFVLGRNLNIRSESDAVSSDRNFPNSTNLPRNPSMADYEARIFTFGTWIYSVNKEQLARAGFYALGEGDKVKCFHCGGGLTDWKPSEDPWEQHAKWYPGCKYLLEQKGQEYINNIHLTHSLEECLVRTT
PROTOCOL DESCRIPTION: Fluorescent polarization assay (Bir binding)
MEASUREMENT CONTEXT: competition with 2 nM fluorescein labeled AVPI peptide, room temperature, 1 hour
Provide only the numeric value, understood in µM.

Would you please look over these solved cases?
>>> number("CN[C@@H](C)C(=O)N[C@@H](CC#CC#CCO[C@H](C)[C@H](NC(=O)[C@H](C)NC)C(=O)N1CCCC1C(=O)N[C@@H]1CCCc2ccccc21)C(=O)N1CCCC1C(=O)N[C@@H]1CCCc2ccccc21.Cl.Cl (stereo partly drawn) [Compound 13]")
0.188
>>> number("CN[C@@H](C)C(=O)N[C@@H](CCCCCC[C@H](NC(=O)[C@H](C)NC)C(=O)N1CCC[C@H]1C(=O)N[C@@H]1CCCc2ccccc21)C(=O)N1CCC[C@H]1C(=O)N[C@@H]1CCCc2ccccc21 [Compound 2]")
0.15

Moving on to another molecule below.
Recorded result, CN[C@@H](C)C(=O)N[C@@H](CCCCCC[C@H](NC(=O)[C@H](C)NC)C(=O)N1CCC[C@H]1C(=O)NC(C)c1ccccc1)C(=O)N1CCC[C@H]1C(=O)NC(C)c1ccccc1 (stereo partly drawn) [Compound 8] , Bir binding: 0.27
